# Tested on: CAMA1
# assay_procedure: GRmax, 72 h; higher = less effect;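 also: breast cell lines in 384-well plates, nine doses across a 10^4 range, Dye Drop imaging of viable cells vs DMSO and time-zero plates, GR 0 means no net growth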
Respond with Criterion met for GRmax, 72 h values of 0.2 GR and above, Criterion not met for values below.

Please tell me: is the molecule `COc1cc(N2CCN(C)CC2)ccc1Nc1ncc2c(n1)N(C)c1ccccc1C(=O)N2CC(F)(F)F` at or over 0.2 GR in terms of GRmax, 72 h?
Criterion met

Repeat for the following molecule: CNCc1ccc(-c2[nH]c3cc(F)cc4c3c2CCNC4=O)cc1 [Rucaparib] (max 10 µM)
Criterion met

Next: CC(=O)c1c(C)c2cnc(Nc3ccc(N4CCN(CCOCCOCCOCCNC(=O)COc5cccc6c5C(=O)N(C5CCC(=O)NC5=O)C6=O)CC4)cn3)nc2n(C2CCCC2)c1=O (centres undefined) [BSJ-03-123] (max 10 µM)
Criterion not met

Okay, and O=C1NC(=NCc2cccs2)SC1=Cc1ccc2ncccc2c1 [R0-3306] (max 10 µM) ?
Criterion not met

Same thing, different molecule: COc1cc2nccc(Oc3ccc(NC(=O)C4(C(=O)Nc5ccc(F)cc5)CC4)cc3)c2cc1OC [Cabozantinib] (max 10 µM)
Criterion met

Could you do the same for COc1cc([C@@H]2c3cc4c(cc3[C@@H](O[C@@H]3O[C@@H]5CO[C@@H](C)O[C@H]5[C@H](O)[C@H]3O)[C@H]3COC(=O)[C@H]23)OCO4)cc(OC)c1O [Etoposide] (max 10 µM) , please?
Criterion not met

Also NC(=O)Nc1cc(-c2cccc(F)c2)sc1C(=O)N[C@H]1CCCNC1 [AZD7762] (max 10 µM) , if possible.
Criterion not met

Thanks! And CO[C@H]1C[C@@H]2CC[C@@H](C)[C@@](O)(O2)C(=O)C(=O)N2CCCC[C@H]2C(=O)O[C@H]([C@H](C)C[C@@H]2CC[C@@H](OCCO)[C@H](OC)C2)CC(=O)[C@H](C)/C=C(\C)[C@@H](O)[C@@H](OC)C(=O)[C@H](C)C[C@H](C)/C=C/C=C/C=C/1C [Everolimus] (max 10 µM) ?
Criterion not met

Param item: CN(C)C/C=C/C(=O)Nc1ccc(C(=O)N2CCC[C@@H](Nc3ncc(Cl)c(-c4c[nH]c5ccccc45)n3)C2)cc1 [THZ531] (max 1 µM)
Criterion not met
